# Test system: PCSK9 gene
# Experiment Description: PCSK9 gRNA/SpCas9 editing in primary cynomolgus hepatocytes (Tables 2, 22)
# Format: cell-based, cynomolgus monkey
# Condition Notes: 2500 ng/RNA/mL; SpCas9 mRNA MS002 1:1 by weight
In the oligonucleotide strings, read from the 5' end, every base follows the letter of its sugar. An asterisk marks phosphorothioate; unmarked linkages are phosphodiester. Other units and linkages are bracketed, terminal groups are in braces. A string of capitals states the bases alone. m = 2'-O-methyl; r = 2'-OH (RNA)
Record Condition met whenever Cyno Primary Hepatocyte Editing % 2500 is at 20% or higher; record Condition not met when lower.

1. GA235: PCSK9 gRNA; protospacer CACCGCTGCCGGCAACTTCC (SEQ ID NO: 228) (nucleic acid, sugars from the 5' end m3 r94 m3, linkages s3 o93 s3 (s phosphorothioate, o phosphodiester), T or U not given here) guide: CACCGCUGCCGGCAACUUCCGUUUUAGAGCUAGAAAUAGCAAGUUAAAAUAAGGCUAGUCCGUUAUCAACUUGAAAAAGUGGCACCGAGUCGGUGCUUUU: Condition met
2. GA245: PCSK9 gRNA; protospacer GTGCTGCTGCCCCTGGCGGG (SEQ ID NO: 238) (nucleic acid, sugars from the 5' end m3 r94 m3, linkages s3 o93 s3 (s phosphorothioate, o phosphodiester), T or U not given here) guide: GUGCUGCUGCCCCUGGCGGGGUUUUAGAGCUAGAAAUAGCAAGUUAAAAUAAGGCUAGUCCGUUAUCAACUUGAAAAAGUGGCACCGAGUCGGUGCUUUU: Condition not met
3. GA223: PCSK9 gRNA; protospacer GCTGACCACCCCTGCCAGGT (SEQ ID NO: 217) (nucleic acid, sugars from the 5' end m3 r94 m3, linkages s3 o93 s3 (s phosphorothioate, o phosphodiester), T or U not given here) guide: GCUGACCACCCCUGCCAGGUGUUUUAGAGCUAGAAAUAGCAAGUUAAAAUAAGGCUAGUCCGUUAUCAACUUGAAAAAGUGGCACCGAGUCGGUGCUUUU: Condition met
4. GA192: PCSK9 gRNA; protospacer CCATGTCGACTACATCGAGG (SEQ ID NO: 186) (nucleic acid) guide: mC*mC*mA*rUrGrUrCrGrArCrUrArCrArUrCrGrArGrGrGrUrUrUrUrArGrArGrCrUrArGrArArArUrArGrCrArArGrUrUrArArArArUrArArGrGrCrUrArGrUrCrCrGrUrUrArUrCrArArCrUrUrGrArArArArArGrUrGrGrCrArCrCrGrArGrUrCrGrGrUrGrCrU*mU*mU*mU: Condition not met
5. GA246: PCSK9 gRNA; protospacer GCCAGCGCCTGGCGAGGGCT (SEQ ID NO: 239) (nucleic acid, sugars from the 5' end m3 r94 m3, linkages s3 o93 s3 (s phosphorothioate, o phosphodiester), T or U not given here) guide: GCCAGCGCCUGGCGAGGGCUGUUUUAGAGCUAGAAAUAGCAAGUUAAAAUAAGGCUAGUCCGUUAUCAACUUGAAAAAGUGGCACCGAGUCGGUGCUUUU: Condition met
